Tested on: rodent lifetime carcinogenesis bioassay, tumor incidence TD50
Assay: carcinogenic potency in animals, long-term in vivo studies, CPDB compilation (AID 1745844)
Conditions: mouse; strain Swiss albino; females; in drinking water; site: liver; lesion: angioma; dosed 111 weeks; study length 111 weeks
assay_endpoint: TD50
Report as: number unit

Prompt: # returns recorded TD50 (system: rodent lifetime carcinogenesis bioassay, tumor incidence TD50) for CC(=O)NNc1ccccc1
Completion: 105 mg/kg/day

---

Test system: rodent lifetime carcinogenesis bioassay, tumor incidence TD50
Test: carcinogenic potency in animals, long-term in vivo studies, CPDB compilation (AID 1745844)
Settings: mouse; strain B6C3F1; females; in feed; site: liver; lesion: hepatocellular carcinoma; dosed 64 weeks; study length 100 weeks
assay_endpoint: TD50

Prompt: So what does the record say about TD50 for CNc1ccc(N(CCO)CCO)cc1[N+](=O)[O-] ?
Completion: 94 mg/kg/day
